- Target Desc: UniProtKB P08254
- Sequence (P08254 whole entry): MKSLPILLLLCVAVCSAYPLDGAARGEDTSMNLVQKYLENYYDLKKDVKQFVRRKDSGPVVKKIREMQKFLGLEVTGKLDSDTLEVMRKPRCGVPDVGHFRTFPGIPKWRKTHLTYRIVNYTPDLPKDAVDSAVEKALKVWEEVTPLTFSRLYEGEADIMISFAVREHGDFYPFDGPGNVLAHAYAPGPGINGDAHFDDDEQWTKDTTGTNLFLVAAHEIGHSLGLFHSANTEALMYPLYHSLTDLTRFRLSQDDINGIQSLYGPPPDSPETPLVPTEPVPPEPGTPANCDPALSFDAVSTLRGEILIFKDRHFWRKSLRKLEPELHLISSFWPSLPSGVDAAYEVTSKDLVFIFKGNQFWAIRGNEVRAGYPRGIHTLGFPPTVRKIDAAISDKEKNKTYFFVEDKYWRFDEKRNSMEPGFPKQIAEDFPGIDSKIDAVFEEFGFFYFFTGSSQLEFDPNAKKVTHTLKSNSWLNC
Quantity Name: Ki (nM)
Report the figure in nM without appending any unit label.

# annotated cases, reported Ki shown
{"Compound": "CCOP(=O)(c1ccc(C)cc1)N1Cc2ccccc2CC1C(=O)NO (stereo not given)", "Ki / nM": 72.9}
{"Compound": "CCO[P@@](=O)(c1ccc(OC)cc1)N1Cc2ccccc2CC1C(=O)NO (stereo not given in full)", "Ki / nM": 5.2}
{"Compound": "CCOP(=O)(c1ccc(Oc2ccncc2)cc1)N1Cc2ccccc2CC1C(=O)NO (stereo not given)", "Ki / nM": 4.85}
{"Compound": "COc1ccc(P(=O)(OCCc2ccccn2)N2Cc3ccccc3CC2C(=O)NO)cc1 (stereo not given)", "Ki / nM": 6.41}
{"Compound": "CCOCCOc1ccc(P(=O)(OCC)N2Cc3ccccc3CC2C(=O)NO)cc1 (stereo not given)", "Ki / nM": 29.6}

Kindly consider the entry below.
Asked: Which value of Ki has been reported for COc1ccc(P(=O)(OCC2CCCCC2)N2Cc3ccccc3CC2C(=O)NO)cc1 (stereo not given) in the records?
Given back: 2.43

Values from ChEMBL document CHEMBL1135723
